# study-system: PI3Kδ (Homo sapiens (Human), UniProt O00329)
# Sequence (O00329 whole entry, canonical isoform): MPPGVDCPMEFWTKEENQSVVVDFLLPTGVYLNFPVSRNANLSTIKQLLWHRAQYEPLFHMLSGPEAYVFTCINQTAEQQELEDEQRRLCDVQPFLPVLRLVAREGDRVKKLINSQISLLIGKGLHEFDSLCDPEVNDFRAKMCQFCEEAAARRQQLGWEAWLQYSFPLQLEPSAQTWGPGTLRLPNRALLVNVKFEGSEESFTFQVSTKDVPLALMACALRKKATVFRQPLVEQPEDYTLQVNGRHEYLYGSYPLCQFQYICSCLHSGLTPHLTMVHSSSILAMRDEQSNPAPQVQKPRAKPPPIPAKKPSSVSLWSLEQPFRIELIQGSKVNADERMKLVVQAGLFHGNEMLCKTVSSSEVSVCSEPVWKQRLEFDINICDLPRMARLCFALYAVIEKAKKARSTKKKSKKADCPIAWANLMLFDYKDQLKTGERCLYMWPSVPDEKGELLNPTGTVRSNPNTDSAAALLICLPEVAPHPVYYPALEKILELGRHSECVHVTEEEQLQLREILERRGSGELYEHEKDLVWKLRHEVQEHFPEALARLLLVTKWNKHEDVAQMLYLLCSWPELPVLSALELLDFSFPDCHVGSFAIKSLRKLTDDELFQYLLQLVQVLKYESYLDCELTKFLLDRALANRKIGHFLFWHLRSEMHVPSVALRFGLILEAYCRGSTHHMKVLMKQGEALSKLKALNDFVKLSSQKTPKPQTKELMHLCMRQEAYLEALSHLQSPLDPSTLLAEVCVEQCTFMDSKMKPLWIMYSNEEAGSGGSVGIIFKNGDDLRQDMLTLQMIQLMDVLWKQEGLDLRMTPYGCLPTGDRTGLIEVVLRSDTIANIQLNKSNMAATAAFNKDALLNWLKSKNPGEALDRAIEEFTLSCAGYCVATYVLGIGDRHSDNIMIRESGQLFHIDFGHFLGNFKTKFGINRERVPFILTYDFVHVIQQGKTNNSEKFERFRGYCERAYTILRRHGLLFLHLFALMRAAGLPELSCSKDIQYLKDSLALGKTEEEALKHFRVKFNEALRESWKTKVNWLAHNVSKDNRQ
# Sequence (P27986 whole entry partner, canonical isoform): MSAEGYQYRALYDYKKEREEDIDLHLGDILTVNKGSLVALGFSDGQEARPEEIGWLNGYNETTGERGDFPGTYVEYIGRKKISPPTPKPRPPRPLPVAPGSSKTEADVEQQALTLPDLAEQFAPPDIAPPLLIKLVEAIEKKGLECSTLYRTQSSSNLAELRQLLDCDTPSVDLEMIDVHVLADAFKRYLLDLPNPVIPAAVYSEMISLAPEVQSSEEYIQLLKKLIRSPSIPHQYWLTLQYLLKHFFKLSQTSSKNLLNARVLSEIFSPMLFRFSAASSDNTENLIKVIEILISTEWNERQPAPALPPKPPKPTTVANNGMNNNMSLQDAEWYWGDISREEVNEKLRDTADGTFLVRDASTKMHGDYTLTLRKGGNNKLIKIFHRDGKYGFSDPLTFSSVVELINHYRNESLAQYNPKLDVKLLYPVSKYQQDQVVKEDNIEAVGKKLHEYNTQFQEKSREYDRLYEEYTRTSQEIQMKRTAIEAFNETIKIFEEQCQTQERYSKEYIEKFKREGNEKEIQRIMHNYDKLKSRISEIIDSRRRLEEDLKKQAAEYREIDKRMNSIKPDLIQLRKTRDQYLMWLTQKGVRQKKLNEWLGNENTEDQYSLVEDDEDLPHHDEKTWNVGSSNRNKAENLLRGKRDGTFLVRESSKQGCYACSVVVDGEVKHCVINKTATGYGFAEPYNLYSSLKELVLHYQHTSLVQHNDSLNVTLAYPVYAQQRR
# procedure-text: TR-FRET enzymatic assay of PI3K isoforms (PI3Kδ)
# study-conditions: 2×Km ATP, 2 μM PIP2, incubated for 30 minutes at 25° C., read-out: δ IC50
measurement-kind: IC50 (nM)

a: Cc1nc(N)nc(N[C@H](c2nc3c(F)ccc(Cl)c3c(=O)n2-c2cccc(C(N)=O)c2)C2CC2)c1C#N
b: C[C@H](Nc1nc(N)nc(N)c1C#N)c1nc2cccc(Cl)c2c(=O)n1-c1cccc(C(N)=O)c1
Challenge: Which shows the larger IC50 value: a or b ? Provide the label of your selected option as the answer.
Response given: a
